The following molecules are shown together with reported Wheat plant response rating values.
Tested on: wheat (Triticum aestivum)
assay protocol: Test A pre-/postemergence: wheat
Assay type: in vivo
condition context: Postemergence, 500 g ai/ha; visual rating on 0 to 100 scale (0 no effect, 100 complete control), approximately ten days
measurement type: Wheat plant response rating

structure_as_smiles=Cc1cnccc1Oc1nn(-c2ccc(F)cc2)nc1C measurement=0
structure_as_smiles=Cc1nn(-c2ccc(F)cc2)nc1Cn1c(Cl)nc(C(F)(F)F)c1Cl measurement=0
structure_as_smiles=Cc1nn(-c2ccc(C(F)(F)F)cc2)nc1Oc1ccnc(C(F)(F)F)c1 measurement=30

* * *

The following compounds are shown together with reported Plant response rating, Cocklebur values.
Test system: cocklebur (common cocklebur, Xanthium strumarium)
assay protocol: Test C pre-/postemergence: cocklebur
Format: in vivo
condition context: Postemergence, 62 g ai/ha; scale 0 to 100 (0 no effect, 100 complete control)
measurement type: Plant response rating, Cocklebur

structure_as_smiles=CCOc1nn(-c2ccc(F)cc2)nc1Cc1ccnc(C(F)(F)F)c1 measured_on="cocklebur (common cocklebur, Xanthium strumarium)" measurement_type="Plant response rating, Cocklebur" measurement=60
structure_as_smiles=COc1nn(-c2ccc(C(F)(F)F)cc2)nc1Cc1ccnc(C(F)(F)F)c1 measured_on="cocklebur (common cocklebur, Xanthium strumarium)" measurement_type="Plant response rating, Cocklebur" measurement=60
structure_as_smiles=FC(F)Oc1nn(-c2ccc(C(F)(F)F)cc2)nc1Cc1ccnc(C(F)(F)F)c1 measured_on="cocklebur (common cocklebur, Xanthium strumarium)" measurement_type="Plant response rating, Cocklebur" measurement=15
structure_as_smiles=COc1nn(-c2ccc(C(F)(F)F)cc2)nc1Cc1ccnc(C(F)F)c1 measured_on="cocklebur (common cocklebur, Xanthium strumarium)" measurement_type="Plant response rating, Cocklebur" measurement=70
structure_as_smiles=Cc1nn(-c2ccc(C(F)(F)F)c(F)c2)nc1Oc1ccnc(C(F)(F)F)c1 measured_on="cocklebur (common cocklebur, Xanthium strumarium)" measurement_type="Plant response rating, Cocklebur" measurement=98

* * *

System: morningglory (Ipomoea coccinea)
assay protocol: Test C pre-/postemergence: morningglory
Type: in vivo
condition context: Postemergence, 31 g ai/ha; scale 0 to 100 (0 no effect, 100 complete control)
measurement type: Plant response rating, Morningglory

structure_as_smiles=Cc1nn(-c2ccnc(Cl)c2)nc1Cc1ccnc(C(F)(F)F)c1 measurement_type="Plant response rating, Morningglory" measurement=85
structure_as_smiles=COc1nn(-c2ccc(C(F)(F)F)cc2)nc1Cc1ccnc(C(F)(F)F)c1 measurement_type="Plant response rating, Morningglory" measurement=75
structure_as_smiles=Cc1nn(-c2ccc(C(F)(F)F)cc2)nc1Oc1ccnc(C(F)(F)F)c1 measurement_type="Plant response rating, Morningglory" measurement=60
structure_as_smiles=CCOc1nn(-c2ccc(C(F)(F)F)cc2)nc1Cc1ccnc(C(F)(F)F)c1 measurement_type="Plant response rating, Morningglory" measurement=50
structure_as_smiles=Cc1nn(-c2ccc(C(F)(F)F)cn2)nc1Cc1cccc(C(F)(F)F)c1 measurement_type="Plant response rating, Morningglory" measurement=0
structure_as_smiles=FCc1nn(-c2ccc(F)cc2)nc1Oc1ccnc(C(F)(F)F)c1 measurement_type="Plant response rating, Morningglory" measurement=60

* * *

Tested on: johnsongrass (Sorghum halepense)
assay protocol: Test C pre-/postemergence: johnsongrass
Type: in vivo
condition context: Preemergence, 250 g ai/ha; scale 0 to 100, 0 no effect, 100 complete control
measurement type: Plant response rating, Johnsongrass

structure_as_smiles=CCc1nn(-c2ccc(C(F)(F)F)cc2)nc1Cc1ccnc(C(F)(F)F)c1 measured_on="johnsongrass (Sorghum halepense)" measurement_type="Plant response rating, Johnsongrass" measurement=95
structure_as_smiles=Cc1nn(-c2ccc(F)cc2F)nc1Oc1ccnc(C(F)(F)F)c1 measured_on="johnsongrass (Sorghum halepense)" measurement_type="Plant response rating, Johnsongrass" measurement=100
structure_as_smiles=CCc1nn(-c2ccc(F)cc2)nc1Cc1ccnc(C(F)(F)F)c1 measured_on="johnsongrass (Sorghum halepense)" measurement_type="Plant response rating, Johnsongrass" measurement=95
structure_as_smiles=Cc1nn(-c2ccc(C(F)(F)F)cc2)nc1Oc1ccnc(C(F)(F)F)c1 measured_on="johnsongrass (Sorghum halepense)" measurement_type="Plant response rating, Johnsongrass" measurement=98
structure_as_smiles=CCOc1nn(-c2ccc(C(F)(F)F)cc2)nc1Cc1ccnc(C(F)(F)F)c1 measured_on="johnsongrass (Sorghum halepense)" measurement_type="Plant response rating, Johnsongrass" measurement=40
structure_as_smiles=COc1nn(-c2cccc(F)c2)nc1Cc1ccnc(C(F)(F)F)c1 measured_on="johnsongrass (Sorghum halepense)" measurement_type="Plant response rating, Johnsongrass" measurement=100
structure_as_smiles=FC(F)Oc1nn(-c2ccc(C(F)(F)F)cc2)nc1Cc1ccnc(C(F)(F)F)c1 measured_on="johnsongrass (Sorghum halepense)" measurement_type="Plant response rating, Johnsongrass" measurement=98
structure_as_smiles=CCOc1nn(-c2ccc(F)cc2)nc1Cc1ccnc(C(F)(F)F)c1 measured_on="johnsongrass (Sorghum halepense)" measurement_type="Plant response rating, Johnsongrass" measurement=100
structure_as_smiles=CCc1nn(-c2ccc(C(F)(F)F)c(F)c2)nc1Oc1ccnc(C(F)(F)F)c1 measured_on="johnsongrass (Sorghum halepense)" measurement_type="Plant response rating, Johnsongrass" measurement=95
structure_as_smiles=FC(F)(F)COc1nn(-c2ccc(C(F)(F)F)cc2)nc1Cc1ccnc(C(F)(F)F)c1 measured_on="johnsongrass (Sorghum halepense)" measurement_type="Plant response rating, Johnsongrass" measurement=85

This collection of values is drawn from patent US9302999B2.
